Reference for the values: patent US20200376136A1

# assay_system: T1, human six-transmembrane epithelial antigen of prostate 2 (STEAP2) (human, UniProt Q8NFT2 1-490)
# T1 construct: also called hSTEAP2
# T1 sequence: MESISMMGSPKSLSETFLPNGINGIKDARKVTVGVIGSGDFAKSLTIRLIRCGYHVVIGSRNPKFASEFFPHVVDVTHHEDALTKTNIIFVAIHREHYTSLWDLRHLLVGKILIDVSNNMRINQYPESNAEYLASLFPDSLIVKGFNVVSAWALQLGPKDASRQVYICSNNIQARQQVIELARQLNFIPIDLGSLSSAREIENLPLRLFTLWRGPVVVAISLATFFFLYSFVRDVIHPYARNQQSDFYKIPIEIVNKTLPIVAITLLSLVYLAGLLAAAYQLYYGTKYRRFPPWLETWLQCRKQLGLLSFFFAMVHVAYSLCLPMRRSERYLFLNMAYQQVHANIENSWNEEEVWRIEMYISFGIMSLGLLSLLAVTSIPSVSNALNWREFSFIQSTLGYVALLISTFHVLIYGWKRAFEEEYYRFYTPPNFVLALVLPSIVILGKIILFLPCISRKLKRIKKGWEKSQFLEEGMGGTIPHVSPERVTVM
# experiment_summary: FACS on C4-2 cells (endogenous STEAP2), MFI fold above unstained, average at 100-300 nM antibody
outcome_measure: Avg F.A.B (fold above background)

H1H11164N (antibody, human IgG1, V domains shown) VH: QVQLQQSGPGLVKPSQTLSLTCVISGDSVSTNSAAWNWIRQSPSRGLEWLGRTYYRSKWYNDYAVSVRSRITINPVTSKNQVALHLNSVTPEDTAVYYCARAGIVVVPGPETYYYYYHGLDVWGQGTTVTVSS VL: DIQMTQSPSSLSASVGDRVTITCRASQNIRSYLNWYQQKPGKAPKLLIHVASSLQSGVPSRFSGSGSGTDFTLTISSLQPEDFATYYCQQSYSTPPITFGHGTRLEIK; 117
